test_name: Cytotoxicity against human MAGI-CCR5 cells assessed as cell viability after 2 to 6 days by MTS assay
assay_setup: MAGI-CCR5 cells
Measured CC50, listed per entry.

CC(C)N1Cc2ccccc2C[C@@H]1CN(CCCCN)[C@H]1CCCc2cccnc21 > 10 µM
NCCCCN(C[C@H]1Cc2ccccc2CN1Cc1ccncc1)[C@H]1CCCc2cccnc21 > 10 µM

Here is the next item to consider.
Record summary for CC(C)NCCCCN(C[C@H]1Cc2ccccc2CN1)[C@H]1CCCc2cccnc21 : reported CC50 = > 10 µM

---

test_name: Elimination half life in jugular pre-cannulated Harlan Sprague-Dawley rat at 2 mg/kg, iv
Assay type: ADME, organism-based
Set-up: dose 2 mg/kg, route intravenous
assay_setup: in vivo, read-out: beta t1/2 (converted)
measurement_name: half-life (h)
Write down the numeric answer in h and omit the unit.

Record summary for NCCCCN(C[C@H]1Cc2ccccc2CN1)[C@H]1CCCc2cccnc21 : reported half-life = 1.2

---

Measured CC50, listed per entry.
test_name: Cytotoxicity against human MAGI-CCR5 cells assessed as cell viability after 2 to 6 days by MTS assay
assay_setup: magi-ccr5

NC(=O)NCCCCN(C[C@H]1Cc2ccccc2CN1)[C@H]1CCCc2cccnc21 > 10 µM
NCCCCN(C[C@H]1NCCc2ccccc21)[C@H]1CCCc2cccnc21 > 30 µM
CN(C)C(=O)NCCCCN(C[C@H]1Cc2ccccc2CN1)[C@H]1CCCc2cccnc21 > 10 µM
NCCCCN(C[C@@H]1CCc2ccccc2N1)[C@H]1CCCc2cccnc21 > 30 µM
CC(=O)NCCCCN(C[C@H]1Cc2ccccc2CN1)[C@H]1CCCc2cccnc21 > 10 µM

Record summary for NCCCCN(C[C@H]1CCc2ccccc2N1)[C@H]1CCCc2cccnc21 : reported CC50 = > 30 µM

Record summary for NCCCCN(C[C@@H]1NCCc2ccccc21)[C@H]1CCCc2cccnc21 : reported CC50 = > 30 µM

Record summary for NCCCCN(C[C@H]1Cc2ccccc2CN1Cc1cocn1)[C@H]1CCCc2cccnc21 : reported CC50 = > 10 µM

Record summary for NCCCCN(C[C@H]1Cc2ccccc2CN1CC(=O)N1CCOCC1)[C@H]1CCCc2cccnc21 : reported CC50 = > 10 µM

Record summary for CN1Cc2ccccc2C[C@@H]1CN(CCCCN)[C@H]1CCCc2cccnc21 : reported CC50 = > 10 µM

---

system: UniProtKB P61073
Sequence (P61073 whole entry): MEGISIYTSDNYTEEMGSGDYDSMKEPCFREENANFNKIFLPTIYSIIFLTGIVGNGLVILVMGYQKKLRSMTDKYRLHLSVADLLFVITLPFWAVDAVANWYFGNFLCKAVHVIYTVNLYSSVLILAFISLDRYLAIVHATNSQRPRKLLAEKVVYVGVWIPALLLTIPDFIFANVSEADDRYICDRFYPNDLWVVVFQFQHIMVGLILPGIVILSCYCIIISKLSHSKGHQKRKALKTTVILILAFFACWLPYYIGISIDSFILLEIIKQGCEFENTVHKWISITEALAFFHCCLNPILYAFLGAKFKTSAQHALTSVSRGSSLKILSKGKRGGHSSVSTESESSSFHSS
test_name: Antagonist activity at CXCR4 in human Chem-1 cells assessed as inhibition of SDF-1alpha-mediated calcium flux preincubated for 10 mins by FLIPR assay
measurement_name: IC50 (nM)
Write down the numeric answer in nM and omit the unit.

Below, each entry is followed by its recorded IC50 result.
CC(=O)NCCCCN(C[C@H]1Cc2ccccc2CN1)[C@H]1CCCc2cccnc21 4
NCCCCN(C[C@H]1Cc2ccccc2CN1Cc1ccccn1)[C@H]1CCCc2cccnc21 56

Record summary for CN1Cc2ccccc2C[C@@H]1CN(CCCCN)[C@H]1CCCc2cccnc21 : reported IC50 = 39

Record summary for NC(=O)NCCCCN(C[C@H]1Cc2ccccc2CN1)[C@H]1CCCc2cccnc21 : reported IC50 = 3

Record summary for NCCCCN(C[C@H]1Cc2ccccc2CN1Cc1cocn1)[C@H]1CCCc2cccnc21 : reported IC50 = 490

Record summary for NCCCCN(C[C@H]1Cc2ccccc2CN1CC(=O)N1CCOCC1)[C@H]1CCCc2cccnc21 : reported IC50 = 570

Record summary for CC(C)NCCCCN(C[C@H]1Cc2ccccc2CN1)[C@H]1CCCc2cccnc21 : reported IC50 = 7
